Measured values drawn from the nanobody polyreactivity screen of Harvey et al. (2022) for this set.

Assay: yeast display, Sf9 membrane polyspecificity reagent, FACS + sequencing; frameworks hold sequencing errors
OBSERVABLE: polyreactivity (PSR sort gate)

Completed entries (count: 6):
>  <SEQUENCE>
QVQLVESGGGLVQAGGSLRLSCAASGFIFANNAMGWYRQAPGKEREWVAAITSRGGGTYYADSVKGRFTISRDNAKNTVYLQMNCLKPEDTAVYYCAVRTYRFRHWPKYDYWGQGNQVTVSS

>  <polyreactivity (PSR sort gate)>
high polyreactivity

$$$$
>  <SEQUENCE>
QVQLVESGGGLVQAGGSLRLSCAASGGIFDRYAMGWYRQAPGKERELVAAITGSGGRTYYADSVKGRFTISRDKAKNSVYLQMTSLKPVDPAVYYCARAFGQRRYDYWGHGTQVTVSS

>  <polyreactivity (PSR sort gate)>
high polyreactivity

$$$$
>  <SEQUENCE>
QVQLVESGGGLVQAGGSLRLSCAASGIILVRNAMGWYRQAPGKERELVAAISKSGGRTYYADSVKGRFTISRDNAKNTVYLQMNSLKPEDTAVYYCNVLTYHDFDYWGQGSQVTVSS

>  <polyreactivity (PSR sort gate)>
high polyreactivity

$$$$
>  <SEQUENCE>
QVQLVESGGGLVQAGGSLRLSCAASGITFNLYAMGWYRQAPGKERELVAGITGGGSTYYADSVKGRFTISRDNAKNTVYLQMNSLTPEDTAVYYSTARRLGARYRGYYWGQGTQVTVSS

>  <polyreactivity (PSR sort gate)>
high polyreactivity

$$$$
>  <SEQUENCE>
QVQLVESGGGLVQAGGSLRLSCAASGRTLRHYAMGWYRQAPGKERELVAAISSTGSSTYYADSVKGRFTISRDNAKNTVYLQMNCLKPEDTAVYYCNAGKKYVDYGVLSSRYYWGQGTQVTVSS

>  <polyreactivity (PSR sort gate)>
low polyreactivity

$$$$
>  <SEQUENCE>
QVQLVESGGGLVQAGGSLRLSCAASGFTFAKYAMGWYRQAPGKERELVAAISSNGGTTYYADSVKGRFTISRDNAKNTDYLQMNSLKPEDTALYYCAAYTYRRPSTFTKVAFDYWGQGSQVTVSS

>  <polyreactivity (PSR sort gate)>
high polyreactivity

$$$$

Need polyreactivity (PSR sort gate) for each of these sequences.
1. QVQLVESGGGLVQAGGSLRLSCAASGRIFRYYAMGWYRQAPGKERELVASINSGGSTYYADSVKGRFTISRDNAKNTVYLQLNSLKPEDTAVYYCAKRVGHSRHADNDYWGQGTQVTVSS
2. QVQLVESGGGLVQAGGSLRLSCAASGRILVGYAMGRYRQAPGKERELVAAINRSGSSTYYADSVKGRFTISRDNAKNTVYLQRNSLNPEDTAVYYCNAPSGNRYGPRYDYWGQGTQVTVSS
3. QVQLVESGGGLVQAGGSLRLSCAASGSTFWYYAMGWYRQAPGKERELVAAISVRGGSTYYADSVKGRFTISRDNAKNTVYLQMNSLKPEETGVYYCAAVSYKSHRYDYWGQGTQVTVSS
4. QVQLVESGGGLVQAGGSLRLSCAASGSTFTPYTMGWYRQAPGKERELVATITGSDGSTYYADSVKGRFTISRDNAKNTVYLQMNSLKPEDTAVYYCYADETRWTWDPFSYICDDYWGQGTQVTVSS
5. EVQLVESGGGLVQAGGSLRLSCAASGSIYGSYAKGWYRQAPGKERELVAGITYRGSSTYYADSVKGRFTISRDNAKYTVYLLMNSLKPEDTAVYYCAADPVFDEYDYWGQGTQVTVSS
6. PVQLVESGGGLVQAGGSLRLSCAASGSTFVVYAMGWYRQAPGKERELVAAITSGVSTNYADSVKGRFTISRDNAKNTVYLQMNSLKPEDTAVYYCNKDVRPAYRWYDYWGQDTQVTVSS
7. QVQLVESGGGLVQAGGSLRLSCAASGFTLNGYAMGWYRQAPGKERELVAAISSSGGRTYYADSVKGRFTISRDNAKNTVYLQMNSLKPEDTAVYYCAAVVYYEDGYWGQGTQVTVSS

Result ::
["low polyreactivity", "high polyreactivity", "high polyreactivity", "low polyreactivity", "low polyreactivity", "low polyreactivity", "low polyreactivity"]

Okay, here is my list. What is polyreactivity (PSR sort gate) for each of these?
1. QVQLVESGGGLVQAGGSLRLSCAASGSTFQYYAMGWYRQAPGKERELVAAISDGTNTNYADSVKGRFTISRDNAKNTVYLQMNSLKPEDTAVYYCAARFYSIVKYVGIGTDEYDYWGQGTQVTVSS
2. QVQLVESGGGLVQAGGSLRLSCAASGYIFQYYAKGWYRQAPGKERELVAAITGGGSTKYADSVKGRFTISRDNAKHTVYLQMNSLKPEDTAVYYCAKRYPSWFNYWGQGTQVTVSS
3. QLQLVESGGGLVQAGGSLRLSCAASGSTFDVNAMGWYRQAPGKERELVAAISYSGGSTYYADSVKGRFTISRDNAKNTVYLQMNSLTPEDTAVYYCNAVFSRYSRLELGYWGQGTQVTVSS
4. QVQLVESGGGLDQEGVRLRLSCAASGRTFRIYAMGLYRQAPGNERELVAAISSDASTSYADSVKGRFTISRDNPKNTVYFQMNSLKPEATAVYYSAADPGPYFDWGYDFWGQGTQVTVSS
5. QVQLVESGGGLVQAGGSLRLSCAASGSTLAKKAMGWYRQEPGKERELVAAISKNGGTTYYADSVKGRFTISRDNAKNTVYLQMNSLKPEDTAVYYCAVSIWGWFASGFDYWGQGTQVTVSS
6. QDQLVESGGGLVQAGGSLRLICAASGRTFITYSMGWYRQAPGKERELVAAISWNGGTTYYADSVKGRFTISRDNAKNTVYIQMNSLKPEVTAVYYCAGYRWYSAARMGYWGQGTQVTVSS
7. QVQLVESGGGLVQAGGSLRLSCAASGSTIFGNVMGWYRQAPGKERELVAVITNRGGSTYYADSVKGRFTISRDNAKNTVYLQMNSLTPEDTAVYYCNARPLYHFWYYSGEEYGYWGQGTQVSVSS

Result ::
["low polyreactivity", "high polyreactivity", "high polyreactivity", "low polyreactivity", "high polyreactivity", "high polyreactivity", "high polyreactivity"]

Query :: What value of polyreactivity (PSR sort gate) has been reported for the following sequence? QVQLVESGGGLVQAGGSLRLSCAASGRIFRPYAMGWYRLAPGKERELVAAISWSGDDTYYADSVKGRFTISRDNAKNTVYLQMNSLKPEDTAVYYCAAEVYAAAYDYWGQGTQVTVSS
Result :: low polyreactivity

###

Test: yeast display, Sf9 membrane polyspecificity reagent, FACS + sequencing; frameworks hold sequencing errors

>  <SEQUENCE>
QVQLVESGGGLVQAGGSLRLSCAASGSTFTSNTRWYRPAPGKERELVAAISSSGRTYYADSVKGRFTISRDNAKNTVYLQMNSLKPEDTAVYYCAARGREFGYWGQGTQVTVSS

>  <polyreactivity (PSR sort gate)>
high polyreactivity

$$$$
>  <SEQUENCE>
QVQLVDSGGGLVQAGGRLRLSCAASGLIFSYYARGRYRQGPRKERELVPAISSGGRTSYADSVKGRFTISRDNEKNTVYLKMNSVKPEASAVYYCAAYPVYNRPGDYWGQGTQVTVSS

>  <polyreactivity (PSR sort gate)>
high polyreactivity

$$$$

###

Experiment: yeast display, Sf9 membrane polyspecificity reagent, FACS + sequencing; frameworks hold sequencing errors
OBSERVABLE: polyreactivity (PSR sort gate)

Look over these answered cases.
>  <SEQUENCE>
QVQLVESGGGLVQAGGSLRLSCAASGITFSRYAMGWYRQAPGKERELVAAITWDGGRTYYADSVKGRFTISRDNAKNTVYLQMNSLKPEDTAVYYCAASRYSPVRWVWLYYWGQGTQVTVSS

>  <OBSERVABLE>
polyreactivity (PSR sort gate)

>  <MEAS VALUE>
high polyreactivity

$$$$
>  <SEQUENCE>
QVQLVESGGGLVHAGGSLRLSCAASGSTFLPNVMGWYRQAPGTERELVAANSSRGGRTYYADSVKGRFTISRDNAKNTVYLQMNSLKPEDTAVYYCAAYTRDTTGSAGIYRDDYWGQGTQVTVSS

>  <OBSERVABLE>
polyreactivity (PSR sort gate)

>  <MEAS VALUE>
high polyreactivity

$$$$
>  <SEQUENCE>
QVQLVESGGGLVQAGGSLRLSCAASGSIFRSYAMGWYRHAPGKERELVASISRRGGSTYYADSVKGRFTSSRDNSKNTVYLHMNSRKPEDTAVYYCAAVRYNSRVSTTTSEMYYWGQGTQVTVSS

>  <OBSERVABLE>
polyreactivity (PSR sort gate)

>  <MEAS VALUE>
low polyreactivity

$$$$
>  <SEQUENCE>
QVQLVESGGGLVQAGGSLRLSCAASGRIFVVNTMGWYRQAPGKERELVAAISFSGVSTYYADSVKGRFTISRDNAKNTVYLQMISLKPEDTAVYYCAAVPYRQYPGGGYWGQGTQVTVSS

>  <OBSERVABLE>
polyreactivity (PSR sort gate)

>  <MEAS VALUE>
low polyreactivity

$$$$

Query :: Give its polyreactivity (PSR sort gate) value. Item: QVQLVESGGGLVQAGGSLRLSCAASGFIFAWYAMGWYRQAPGKERELVAAITSSGTSTYYADSVKGRFTISRDNAKNTVYLQMNSLTPEDTAVYYCAAVTKRYLAYDYWGQGTQVTVSS
Result :: high polyreactivity
